Recorded IC50 values for a group of compounds are listed next.
Tested on: COLO205 colon adenocarcinoma cells (B-Raf V600E mutation)
Assay: COLO205 cell growth inhibition (ATPlite)
Assay type: cell-based
Conditions: Homo sapiens, COLO 205, 72 h, 3 days
measured.attribute: IC50

compound | measured.attribute | obs.value
COc1ncc(-c2cnc3[nH]cc(C(=O)c4cccc(NS(=O)(=O)N5CCCC5)c4F)c3c2)c(OC)n1 [Compound P-0044] | IC50 | < 1 µM
CN1CCN(c2cccc(-c3cnc4[nH]cc(C(=O)c5cccc(NS(=O)(=O)N6CCCC6)c5F)c4c3)n2)CC1 [Compound P-0324] | IC50 | < 1 µM
CCN(C)S(=O)(=O)Nc1ccc(F)c(C(=O)c2c[nH]c3ncc(-c4cnc(C5CC5)nc4)cc23)c1F [Compound P-0240] | IC50 | < 1 µM
CC1(C)CCN(S(=O)(=O)Nc2cccc(C(=O)c3c[nH]c4ncc(-c5cnc(C6CC6)nc5)cc34)c2F)C1 [Compound P-0246] | IC50 | > 1 µM
CCN(C)S(=O)(=O)Nc1cccc(C(=O)c2c[nH]c3ncc(-c4ccc(N(C)C)nc4)cc23)c1F [Compound P-0076] | IC50 | < 1 µM
COc1cc(-c2cnc3[nH]cc(C(=O)c4cccc(NS(=O)(=O)N5CCCC5)c4F)c3c2)ccc1C#N [Compound P-0049] | IC50 | < 1 µM
O=C(c1c(F)ccc(NS(=O)(=O)N2CCC(F)C2)c1F)c1c[nH]c2ncc(-c3cnc(C4CC4)nc3)cc12 (stereo not shown) [Compound P-0339] | IC50 | < 1 µM

---

System: COLO205 colon adenocarcinoma cells (B-Raf V600E mutation)
Assay: COLO205 cell growth inhibition (ATPlite)
Format: cell-based
Conditions: Homo sapiens, COLO 205, 72 h, 3 days
Recorded IC50 values for a group of compounds are listed next.
measured.attribute: IC50

compound | target.or.test.system | obs.value
CCN(C)S(=O)(=O)Nc1cccc(C(=O)c2c[nH]c3ncnc(N[C@@H](C)C4CC4)c23)c1F | COLO205 colon adenocarcinoma cells (B-Raf V600E mutation) | > 1 µM
O=C(c1c(F)ccc(NS(=O)(=O)N2CCCC2)c1F)c1c[nH]c2ncc(-c3cnc(C4CC4)nc3)cc12 | COLO205 colon adenocarcinoma cells (B-Raf V600E mutation) | < 1 µM
CCN(C)S(=O)(=O)Nc1ccc(F)c(C(=O)c2c[nH]c3ncc(-c4cccc(C5(C#N)CC5)c4)cc23)c1F | COLO205 colon adenocarcinoma cells (B-Raf V600E mutation) | > 1 µM
CCC(C)S(=O)(=O)Nc1cccc(C(=O)c2c[nH]c3ncc(-c4ccc(C5(C#N)CC5)cc4)cc23)c1F (stereo not shown) | COLO205 colon adenocarcinoma cells (B-Raf V600E mutation) | < 1 µM

---

System: COLO205 colon adenocarcinoma cells (B-Raf V600E mutation)
Test: COLO205 cell growth inhibition (ATPlite)
Format: cell-based
Conditions: Homo sapiens, COLO 205, 72 h, 3 days
Recorded IC50 values for a group of compounds are listed next.

compound | IC50
CN(C)c1ncc(-c2cnc3[nH]cc(C(=O)c4cccc(NS(=O)(=O)N(C)C)c4F)c3c2)cn1 | < 1 µM
C[C@@H]1CCN(S(=O)(=O)Nc2cccc(C(=O)c3c[nH]c4ncc(-c5cnc(C6CC6)nc5)cc34)c2F)C1 | < 1 µM
CN1CCN(c2ncc(-c3cnc4[nH]cc(C(=O)c5c(F)ccc(NS(=O)(=O)N6CCCC6)c5F)c4c3)cn2)CC1 | < 1 µM
CN(C)S(=O)(=O)Nc1cccc(C(=O)c2c[nH]c3ncc(I)cc23)c1F | < 1 µM
COCCN(C)S(=O)(=O)Nc1cccc(C(=O)c2c[nH]c3ncc(-c4cnc(OC)nc4)cc23)c1F | > 1 µM
O=C(c1cccc(NS(=O)(=O)N2CCCC2)c1F)c1c[nH]c2ncc(-c3ccc(F)cc3)cc12 | < 1 µM
COc1ncc(-c2cnc3[nH]cc(C(=O)c4cccc(NS(=O)(=O)N5CCCC5C)c4F)c3c2)cn1 (stereo not shown) | > 1 µM

---

Recorded IC50 values for a group of compounds are listed next.
Target: B-Raf V600E (Homo sapiens (Human), UniProt P15056, V600E)
Sequence (P15056 whole entry V600E): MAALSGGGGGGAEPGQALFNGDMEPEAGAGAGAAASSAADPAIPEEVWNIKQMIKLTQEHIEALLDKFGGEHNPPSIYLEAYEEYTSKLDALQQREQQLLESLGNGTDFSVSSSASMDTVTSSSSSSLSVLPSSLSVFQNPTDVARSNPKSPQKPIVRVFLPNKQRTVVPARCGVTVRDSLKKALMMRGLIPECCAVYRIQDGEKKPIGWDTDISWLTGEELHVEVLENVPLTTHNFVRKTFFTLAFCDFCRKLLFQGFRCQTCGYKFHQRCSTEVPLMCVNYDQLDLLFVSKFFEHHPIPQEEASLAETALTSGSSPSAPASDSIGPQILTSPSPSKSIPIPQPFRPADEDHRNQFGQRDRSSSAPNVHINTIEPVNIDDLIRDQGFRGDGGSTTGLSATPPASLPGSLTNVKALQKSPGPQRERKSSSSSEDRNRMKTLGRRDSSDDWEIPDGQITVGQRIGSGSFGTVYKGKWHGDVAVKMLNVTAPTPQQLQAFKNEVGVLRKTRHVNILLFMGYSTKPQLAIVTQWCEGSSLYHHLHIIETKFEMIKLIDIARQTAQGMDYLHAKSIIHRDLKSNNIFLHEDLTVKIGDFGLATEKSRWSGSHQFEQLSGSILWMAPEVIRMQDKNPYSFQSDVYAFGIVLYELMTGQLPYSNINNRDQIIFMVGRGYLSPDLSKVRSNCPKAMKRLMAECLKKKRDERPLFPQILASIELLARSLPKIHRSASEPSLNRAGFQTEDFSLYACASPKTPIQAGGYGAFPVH
Assay: B-Raf V600E kinase biochemical activity assay (AlphaScreen, biotin-MEK1 substrate)
Settings: 100 μM ATP
measured.attribute: IC50

compound | obs.value
CCN(C)S(=O)(=O)Nc1ccc(F)c(C(=O)c2c[nH]c3ncc(-c4csc(C(C)(C)O)n4)cc23)c1F [Compound P-0316] | < 0.1 µM
CCCNS(=O)(=O)Nc1cccc(C(=O)c2c[nH]c3ncc(C)cc23)c1F [Compound P-0223] | > 0.1 µM
CN(C)S(=O)(=O)Nc1cccc(C(=O)c2c[nH]c3ncc(I)cc23)c1F [Compound P-0110] | < 0.1 µM
O=C(c1cccc(NS(=O)(=O)N2CCCC2)c1F)c1c[nH]c2ncc(-c3ccncc3)cc12 [Compound P-0281] | < 0.1 µM
CN(C)S(=O)(=O)Nc1cccc(C(=O)c2c[nH]c3ncc(-c4cnc(N5CCCC5)nc4)cc23)c1F [Compound P-0107] | < 0.1 µM
COC(=O)CCS(=O)(=O)Nc1cccc(C(=O)c2c[nH]c3ncc(-c4cnc(OC)nc4)cc23)c1F [Compound P-0066] | < 0.1 µM
C[C@H]1CCN(S(=O)(=O)Nc2ccc(F)c(C(=O)c3c[nH]c4ncc(-c5cnc(C6CC6)nc5)cc34)c2F)C1 [Compound P-0320] | > 0.1 µM

---

Recorded IC50 values for a group of compounds are listed next.
Tested on: COLO205 colon adenocarcinoma cells (B-Raf V600E mutation)
Assay: COLO205 cell growth inhibition (ATPlite)
Type: cell-based
Conditions: Homo sapiens, COLO 205, 72 h, 3 days

compound | IC50
CC(C)CN(C)S(=O)(=O)Nc1cccc(C(=O)c2c[nH]c3ncc(I)cc23)c1F | > 1 µM
CCC(C)S(=O)(=O)Nc1cccc(C(=O)c2c[nH]c3ncc(-c4cnc(OC)nc4)cc23)c1F (stereo not shown) | < 1 µM
COc1ccnc(-c2cnc3[nH]cc(C(=O)c4cccc(NS(=O)(=O)N5CCCC5)c4F)c3c2)n1 | > 1 µM
CCN(C)S(=O)(=O)Nc1cccc(C(=O)c2c[nH]c3ncc(-c4ccc(C(F)(F)F)nc4)cc23)c1F | < 1 µM
CCCNS(=O)(=O)Nc1cccc(C(=O)c2c[nH]c3ncc(-c4cnc(C5CC5)nc4)cc23)c1F | > 1 µM
Cc1cnc2[nH]cc(C(=O)c3cccc(NS(=O)(=O)N4CCCC4)c3F)c2c1 | > 1 µM
CN(C)S(=O)(=O)Nc1cccc(C(=O)c2c[nH]c3ncc(-c4ccc(F)cc4)cc23)c1F | > 1 µM

---

System: COLO205 colon adenocarcinoma cells (B-Raf V600E mutation)
Experiment: COLO205 cell growth inhibition (ATPlite)
Assay type: cell-based
Conditions: Homo sapiens, COLO 205, 72 h, 3 days
Recorded IC50 values for a group of compounds are listed next.

compound | IC50
CCCN(C)S(=O)(=O)Nc1ccc(F)c(C(=O)c2c[nH]c3ncc(-c4cnc(OC)nc4)cc23)c1F | < 1 µM
CCCN(C)S(=O)(=O)Nc1ccc(F)c(C(=O)c2c[nH]c3ncc(-c4cnc(C5CC5)nc4)cc23)c1F | > 1 µM
CCN(C)S(=O)(=O)Nc1cccc(C(=O)c2c[nH]c3ncc(Br)cc23)c1F | > 1 µM
O=C(c1cccc(NS(=O)(=O)N2CCCC2)c1F)c1c[nH]c2ncc(-c3cccnc3)cc12 | < 1 µM
CCC(C)S(=O)(=O)Nc1ccc(F)c(C(=O)c2c[nH]c3ncc(-c4ccc(Cl)cc4)cc23)c1F (stereo not shown) | > 1 µM
Nc1nccc(-c2cnc3[nH]cc(C(=O)c4c(F)ccc(NS(=O)(=O)N5CCCC5)c4F)c3c2)n1 | < 1 µM
CCN(C)S(=O)(=O)Nc1ccc(F)c(C(=O)c2c[nH]c3ncc(-c4cnc(OC)nc4)cc23)c1F | < 1 µM

---

Tested on: COLO205 colon adenocarcinoma cells (B-Raf V600E mutation)
Assay: COLO205 cell growth inhibition (ATPlite)
Type: cell-based
Details: Homo sapiens, COLO 205, 72 h, 3 days

compound | IC50
CCN(C)S(=O)(=O)Nc1ccc(F)c(C(=O)c2c[nH]c3ncc(-c4cccc(N5CCOCC5)c4)cc23)c1F [Compound P-0259] | < 1 µM
CCN(C)S(=O)(=O)Nc1ccc(F)c(C(=O)c2c[nH]c3ncc(-c4cnc(N5CCNCC5)nc4)cc23)c1F [Compound P-0268] | < 1 µM
CN(C1CC1)S(=O)(=O)Nc1ccc(F)c(C(=O)c2c[nH]c3ncc(-c4cnc(C5CC5)nc4)cc23)c1F [Compound P-0252] | < 1 µM
CN(C)S(=O)(=O)Nc1cccc(C(=O)c2c[nH]c3ncc(-c4cncc(C#N)c4)cc23)c1F [Compound P-0098] | < 1 µM
CCN(C)S(=O)(=O)Nc1ccc(F)c(C(=O)c2c[nH]c3ncc(-c4cncc(C(C)(C)O)c4)cc23)c1F [Compound P-0306] | < 1 µM
CCN(C)S(=O)(=O)Nc1ccc(F)c(C(=O)c2c[nH]c3ncc(-c4ccc(-c5nnc(NC)s5)cc4)cc23)c1F [Compound P-0305] | < 1 µM
Nc1cc(-c2cnc3[nH]cc(C(=O)c4cccc(NS(=O)(=O)N5CCCC5)c4F)c3c2)ncn1 [Compound P-0299] | > 1 µM
CCN(C)S(=O)(=O)Nc1ccc(F)c(C(=O)c2c[nH]c3ncc(-c4ccc(-c5nnc(C)o5)cc4)cc23)c1F [Compound P-0304] | < 1 µM
O=C(c1cccc(NS(=O)(=O)N2CCCC2)c1F)c1c[nH]c2ncc(C3CC3)cc12 [Compound P-0274] | > 1 µM

Data provenance is patent US20230277534A1.
